assay: signal quenchers or enhancers, Cy5 substrate/SSB – biochemical, NIH Clinical Collection, E. coli SSB, artefact control for HCV NS3 helicase inhibitor project (AID 743268); conditions: Cy5-oligo bound E. coli SSB, fluorescence interference
Calls of active or inactive are those of the source. No rule for the calls is given here.
parameter_measured: fluorescence ratio

fluorescence ratio lookup needed for CC[C@@]1(O)C(=O)OCc2c1cc1n(c2=O)Cc2cc3c(CN(C)C)c(O)ccc3nc2-1 , thanks.
1.05 (inactive)

fluorescence ratio lookup needed for CC(C)c1nc(CN(C)C(=O)N[C@H](C(=O)N[C@@H](Cc2ccccc2)C[C@H](O)[C@H](Cc2ccccc2)NC(=O)OCc2cncs2)C(C)C)cs1 , thanks.
1.03 (inactive)

fluorescence ratio lookup needed for O=C(O)CCNC(=O)c1ccc(N=Nc2ccc(O)c(C(=O)O)c2)cc1 , thanks.
0.93 (inactive)

fluorescence ratio lookup needed for C[C@H]1COc2c(C3(N)CC3)c(F)cc3c(=O)c(C(=O)O)cn1c23 , thanks.
1.05 (inactive)

fluorescence ratio lookup needed for CCN1CCC[C@H]1CNC(=O)c1cc(S(N)(=O)=O)ccc1OC , thanks.
1.03 (inactive)

fluorescence ratio lookup needed for COc1cc2nc(N3CCN(C(=O)C4COc5ccccc5O4)CC3)nc(N)c2cc1OC (stereo unspecified) , thanks.
1.06 (inactive)

---

tested on: Neuropilin-2 / VEGF-C interaction (human); assay: small molecules blocking Neuropilin-2/VEGF-C interaction – biochemical, microplate binding format, z-score (AID 743281); details: microplate NRP2/VEGF-C binding assay; as to z-score: test concentration not given here
The source made the active and inactive calls. No rule for the calls is given here.
Returns: one label drawn from t (active), f (inactive)

GET /call?item= OCCOCCN1CCN(C2=Nc3ccccc3Sc3ccccc32)CC1 returns the recorded outcome of this test.
f

GET /call?item= COc1cc(-c2ccc(=O)[nH]n2)ccc1OC(F)F returns the recorded outcome of this test.
f

GET /call?item= CCOC(=O)c1ncn2c1CN(C)C(=O)c1cc(F)ccc1-2 returns the recorded outcome of this test.
f

GET /call?item= CN1CCC(=C2c3ccccc3C=Cc3ccccc32)CC1 returns the recorded outcome of this test.
f

GET /call?item= Nc1nc(N)nc(-c2cc(Cl)ccc2Cl)n1 returns the recorded outcome of this test.
f

GET /call?item= Cc1ccc(NC(=O)c2ccc(CN3CCN(C)CC3)cc2)cc1Nc1nccc(-c2cccnc2)n1 returns the recorded outcome of this test.
f

GET /call?item= COc1cc(C(=O)NS(=O)(=O)c2ccccc2C)ccc1Cc1cn(C)c2ccc(NC(=O)OC3CCCC3)cc12 returns the recorded outcome of this test.
t

GET /call?item= COC(=O)C1=C(C)NC(C)=C(C(=O)O[C@@H]2CCCN(Cc3ccccc3)C2)[C@@H]1c1cccc([N+](=O)[O-])c1 returns the recorded outcome of this test.
f

GET /call?item= CC(C)(C)NC(=O)[C@@H]1CN(Cc2cccnc2)CCN1C[C@@H](O)C[C@@H](Cc1ccccc1)C(=O)N[C@H]1c2ccccc2C[C@H]1O returns the recorded outcome of this test.
f

GET /call?item= CCCc1c(OCCCCc2nn[nH]n2)ccc(C(C)=O)c1O returns the recorded outcome of this test.
f

GET /call?item= CCN1CC(CCN2CCOCC2)C(c2ccccc2)(c2ccccc2)C1=O (configuration not stated) returns the recorded outcome of this test.
f

GET /call?item= O=c1c(-c2ccccc2)c1-c1ccccc1 returns the recorded outcome of this test.
f

GET /call?item= Clc1ccccc1C(c1ccccc1)(c1ccccc1)n1ccnc1 returns the recorded outcome of this test.
f

GET /call?item= Cc1[nH]cnc1CN1CCc2c(c3ccccc3n2C)C1=O returns the recorded outcome of this test.
f

GET /call?item= O=c1[nH]cnc2c1ncn2[C@H]1CC[C@@H](CO)O1 returns the recorded outcome of this test.
f

GET /call?item= Cc1c(O)cccc1C(=O)N[C@@H](CSc1ccccc1)[C@H](O)CN1C[C@H]2CCCC[C@H]2C[C@H]1C(=O)NC(C)(C)C returns the recorded outcome of this test.
f

GET /call?item= NC(N)=Nc1nc(CSCC/C(N)=N/S(N)(=O)=O)cs1 returns the recorded outcome of this test.
f

GET /call?item= Nc1c2c(nc3c1CCC3)CCCC2 returns the recorded outcome of this test.
f

GET /call?item= CN1CCC(=C2c3ccccc3CC(=O)c3sccc32)CC1 returns the recorded outcome of this test.
f

GET /call?item= CCc1nn(CCCN2CCN(c3cccc(Cl)c3)CC2)c(=O)n1CCOc1ccccc1 returns the recorded outcome of this test.
f

GET /call?item= CC(=O)[C@]1(O)Cc2c(O)c3c(c(O)c2[C@@H](O[C@H]2C[C@H](N)[C@H](O)[C@H](C)O2)C1)C(=O)c1ccccc1C3=O returns the recorded outcome of this test.
f

GET /call?item= C[C@@H]1CN(CCCn2c3ccccc3c3ccccc32)C[C@H](C)N1 returns the recorded outcome of this test.
f
